These data points were gathered from patent US11560400B2.

system: MOLT-4; assay: CellTiterGlo cell viability assay, MOLT-4; assay type: cell-based; conditions: Homo sapiens; MOLT-4, 72 h, Table 3 classes; read-out: Ab EC50
experimentalReadout: EC50

Just so you know, measured EC50 for Nc1nc(Cl)nc2c1ncn2[C@@H]1O[C@H](CO)[C@@H](O)[C@@H]1F [Clofarabine, reference compound] came out at < 200 nM

Just so you know, measured EC50 for CCOC(=O)[C@H](C)NP(=O)(Oc1ccccc1)OP(=O)(O)OC[C@H]1O[C@@H](n2cnc3c(N)nc(Cl)nc32)[C@H](F)C1O (stereo partly shown) [Example 2] came out at < 200 nM

Just so you know, measured EC50 for C[C@H](NP(=O)(Oc1ccccc1)OP(=O)(O)OC[C@H]1O[C@@H](n2cnc3c(N)nc(Cl)nc32)[C@H](F)C1O)C(=O)OCc1ccccc1 (stereo partly shown) [Example 1] came out at < 200 nM

Just so you know, measured EC50 for Nc1nc(Cl)nc2c1ncn2[C@@H]1O[C@H](COP(=O)(O)OP(=O)(NCC(=O)OCc2ccccc2)Oc2ccccc2)C(O)[C@H]1F (stereo partly shown) [Example 3] came out at < 200 nM
